B1: HDV Ribozyme (parent)
chain: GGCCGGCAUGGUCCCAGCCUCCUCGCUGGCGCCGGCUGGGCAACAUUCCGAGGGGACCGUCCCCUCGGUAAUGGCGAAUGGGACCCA

Variants of: B1
TEST SUMMARY: self-cleavage, relative activity (ratio to wild type); higher = more cleavage; co-transcriptional
Please use fulfilled whenever self-cleavage is not below 0.4, and not fulfilled whenever it is.

For orientation, consider the following solved cases.
Enquiry: For this variant, is measured self-cleavage 0.4 or higher? GGCCGUCAUGGUCCCAGCCUCCUCGCUGGCGCCGGCUGGGCAACAUUCCGAGGGGACCGUCCCCUCGGUAAUGGCGAGUGGGACCCA [G6U A78G]
Return: not fulfilled

Enquiry: Threshold query (self-cleavage >= 0.4) on GACCGGCAUGGUCCCAGCCUCCUCGCUGGCGCCGGCUUGGCAACAUUCCGAGGGGACCGUCCCCUCGGUAAUGGCGAAUGGGACCCA [G2A G38U]
Return: not fulfilled

Enquiry: Answer whether self-cleavage of GGCCGGCAUGGUCCCAGCCUCCUCGCUGGCGCCGGCUGGGCAACAUUCCGAGGGGACCGUGCCCUCGGUAAUGGCUAAUGGGACCCA [C61G G76U] is greater than or equal to 0.4.
Return: fulfilled

Enquiry: Identify whether the reported self-cleavage of the following variant is 0.4 or greater: GGCCGGCUUGGUCCCAGCCUCCUCGCUGGCGCCGGCUGGGCAACAUUCCGAGGGGACCGUCCCCCCGGUAAUGGCGAAUGGGACCCA [A8U U65C]
Return: fulfilled

Enquiry: Is reported self-cleavage greater than or equal to 0.4 here: GGACGGCAUGGUCCCAGCCUCCUCGCUGGCGCCGGCUGGGCAACAUUCCGAGGGGAUCGUCCCCUCGGUAAUGGCGAAUGGGACCCA [C3A C57U]
Return: fulfilled

---
Enquiry: Does self-cleavage meet or surpass 0.4 for GGCCGGCAUGGUCACAGCCUCCUCGCUGGCGCCGGUUGGGCAACAUUCCGAGGGGACCGUCCCCUCGGUAAUGGCGAAUGGGACCCA [C14A C36U] ?
Return: not fulfilled

Enquiry: Given GGCCGGCAUGGUCCCAGCCUCCGCGCUGGCGCCGGCUGGGCAACAUUCCGAGGGGACCGUCCCCUCGGUAAUGGUGAAUGGGACCCA [U23G C75U] , state whether its self-cleavage is at least 0.4.
Return: not fulfilled

Enquiry: Does the variant GGCCGGCAUGGUCCCAGCCUCCUUGCUGGCGCCGGCUGGGCAACAUUCCGAGGGGACCGUCCCCUCGGUAAUGGCGAAUGGGACCCC [C24U A87C] have recorded self-cleavage that is 0.4 or more?
Return: fulfilled

Enquiry: Quick check, self-cleavage >= 0.4? GGCCGGCAUGGUCCCAGCCUCCUCGCUGGCGCCGGCUGGGCAACAUUACGAGGGGCCCGUCCCCUCGGUAAUGGCGAAUGGGACCCA [C48A A56C]
Return: fulfilled

Enquiry: Reported self-cleavage at or above 0.4? GGCCGGCAUGGUCCCAGCCUCCUCGCUGGCGCCGGCUGGGCAACAUUCCGAGGGGACCGUGCCCUCGGUAAUGGCGAAUGGGGCCCA [C61G A83G]
Return: fulfilled

Enquiry: # bool: self-cleavage of GGCUGGCAUGGUCCCAGCCUCCUCGCUGGCGCCGGCUGGGCAACAUUCCGAGGGGACCAUCCCCUCGGUAAUGGCGAAUGGGACCCA [C4U G59A] >= 0.4
Return: fulfilled
